- Tested on: HS 578T
Flag rule - GI50 less than 2000 nM flags Fulfilled; the remaining entries get Not fulfilled.

Solved entries (count: 5):
{"Compound": "C=C1CCC2C3(C)COC(c4cn(-c5ccccc5)nc4-c4ccc(Cl)cc4)OC3CCC2(C)C1CC=C1C(=O)OCC1O (stereo not shown) [1g]", "Answer label": "Fulfilled"}
{"Compound": "C=C1CCC2C3(C)COC(c4cn(-c5ccccc5)nc4-c4ccc(C)cc4)OC3CCC2(C)C1CC=C1C(=O)OCC1O (stereo not shown) [1i]", "Answer label": "Fulfilled"}
{"Compound": "C=C1CCC2C3(C)COC(c4cn(-c5ccccc5)nc4-c4ccccc4)OC3CCC2(C)C1CC=C1C(=O)OCC1O (stereo not shown) [1a]", "Answer label": "Not fulfilled"}
{"Compound": "C=C1CCC2C3(C)COC(c4cn(-c5ccccc5)nc4-c4ccc(OC)cc4)OC3CCC2(C)C1CC=C1C(=O)OCC1O (stereo not shown) [1j]", "Answer label": "Fulfilled"}
{"Compound": "C=C1CCC2C3(C)COC(c4cn(-c5ccccc5)nc4-c4ccc(F)cc4)OC3CCC2(C)C1CC=C1C(=O)OCC1O (stereo not shown) [1f]", "Answer label": "Fulfilled"}

Inquiry: A record lists C=C1CCC2C3(C)COC(c4cn(-c5ccccc5)nc4-c4cccc(F)c4)OC3CCC2(C)C1CC=C1C(=O)OCC1O (stereo not shown) [1c] . Is its GI50 below 2000 nM?
Reply text: Fulfilled

Inquiry: A record lists C=C1CCC2C3(C)COC(c4cn(-c5ccccc5)nc4-c4cccc([N+](=O)[O-])c4)OC3CCC2(C)C1CC=C1C(=O)OCC1O (stereo not shown) [1b] . Is its GI50 below 2000 nM?
Reply text: Not fulfilled

Inquiry: A record lists C=C1CCC2C3(C)COC(c4cn(-c5ccccc5)nc4-c4ccc(Br)cc4)OC3CCC2(C)C1CC=C1C(=O)OCC1O (stereo not shown) [1h] . Is its GI50 below 2000 nM?
Reply text: Fulfilled

Inquiry: A record lists C=C1CCC2C3(C)COC(c4cn(-c5ccccc5)nc4-c4cccc(Cl)c4)OC3CCC2(C)C1CC=C1C(=O)OCC1O (stereo not shown) [1d] . Is its GI50 below 2000 nM?
Reply text: Fulfilled

====

- Test system: CAKI-1
Assay readout: GI50 (µM)
State the answer as a number, implicitly in µM.

Consider the worked cases shown below.
{"Compound": "C=C1CCC2C3(C)COC(c4cn(-c5ccccc5)nc4-c4cccc(F)c4)OC3CCC2(C)C1CC=C1C(=O)OCC1O (stereo not shown) [1c]", "Assay readout": "GI50", "Endpoint unit": "µM", "Data value": 1.56}
{"Compound": "C=C1CCC2C3(C)COC(c4cn(-c5ccccc5)nc4-c4cccc(Cl)c4)OC3CCC2(C)C1CC=C1C(=O)OCC1O (stereo not shown) [1d]", "Assay readout": "GI50", "Endpoint unit": "µM", "Data value": 1.32}
{"Compound": "C=C1CCC2C3(C)COC(c4cn(-c5ccccc5)nc4-c4ccc(Br)cc4)OC3CCC2(C)C1CC=C1C(=O)OCC1O (stereo not shown) [1h]", "Assay readout": "GI50", "Endpoint unit": "µM", "Data value": 1.59}
{"Compound": "C=C1CCC2C3(C)COC(c4cn(-c5ccccc5)nc4-c4cccc(Br)c4)OC3CCC2(C)C1CC=C1C(=O)OCC1O (stereo not shown) [1e]", "Assay readout": "GI50", "Endpoint unit": "µM", "Data value": 1.42}

Inquiry: Identify measured GI50 associated with C=C1CCC2C3(C)COC(c4cn(-c5ccccc5)nc4-c4ccccc4)OC3CCC2(C)C1CC=C1C(=O)OCC1O (stereo not shown) [1a]
Reply text: 1.86

Inquiry: Identify measured GI50 associated with C=C1CCC2C3(C)COC(c4cn(-c5ccccc5)nc4-c4ccc(OC)cc4)OC3CCC2(C)C1CC=C1C(=O)OCC1O (stereo not shown) [1j]
Reply text: 1.26

Inquiry: Identify measured GI50 associated with C=C1CCC2C3(C)COC(c4cn(-c5ccccc5)nc4-c4ccc(F)cc4)OC3CCC2(C)C1CC=C1C(=O)OCC1O (stereo not shown) [1f]
Reply text: 1.58

====

- System: BT-549
- Type: cell-based
- Stated conditions: BT-549, Breast; read-out: 50% lethal concentration (LC50)
Assay readout: CC50 (µM)
State the answer as a number, implicitly in µM.

Inquiry: Identify measured CC50 associated with C=C1CCC2C3(C)COC(c4cn(-c5ccccc5)nc4-c4ccccc4)OC3CCC2(C)C1CC=C1C(=O)OCC1O (stereo not shown)
Reply text: 6.1

====

Below are GI50 values recorded for T-47D.
State the answer as a number, implicitly in µM.

Consider the worked cases shown below.
{"Molecule": "C=C1CCC2C3(C)COC(c4cn(-c5ccccc5)nc4-c4ccc(OC)cc4)OC3CCC2(C)C1CC=C1C(=O)OCC1O (stereo not drawn) [1j]", "Endpoint unit": "µM", "GI50": 1.8}
{"Molecule": "C=C1CCC2C3(C)COC(c4cn(-c5ccccc5)nc4-c4ccc(Cl)cc4)OC3CCC2(C)C1CC=C1C(=O)OCC1O (stereo not drawn) [1g]", "Endpoint unit": "µM", "GI50": 1.31}

# input for lookup
Inquiry: Identify measured GI50 associated with C=C1CCC2C3(C)COC(c4cn(-c5ccccc5)nc4-c4ccc(Br)cc4)OC3CCC2(C)C1CC=C1C(=O)OCC1O (stereo not drawn) [1h]
Reply text: 1.18

====

- Tested on: HOP-62
- Stated conditions: read-out: 50% lethal concentration (LC50); HOP-62, Non-Small Cell Lung
Flag rule - CC50 less than 8 µM flags y; the remaining entries get n.

Solved entries (count: 4):
{"Compound": "C=C1CCC2C3(C)COC(c4cn(-c5ccccc5)nc4-c4ccc(OC)cc4)OC3CCC2(C)C1CC=C1C(=O)OCC1O (stereo not shown) [1j]", "Answer label": "n"}
{"Compound": "C=C1CCC2C3(C)COC(c4cn(-c5ccccc5)nc4-c4cccc(Cl)c4)OC3CCC2(C)C1CC=C1C(=O)OCC1O (stereo not shown) [1d]", "Answer label": "n"}
{"Compound": "C=C1CCC2C3(C)COC(c4cn(-c5ccccc5)nc4-c4cccc(F)c4)OC3CCC2(C)C1CC=C1C(=O)OCC1O (stereo not shown) [1c]", "Answer label": "n"}
{"Compound": "C=C1CCC2C3(C)COC(c4cn(-c5ccccc5)nc4-c4ccc(Cl)cc4)OC3CCC2(C)C1CC=C1C(=O)OCC1O (stereo not shown) [1g]", "Answer label": "n"}

Inquiry: A record lists C=C1CCC2C3(C)COC(c4cn(-c5ccccc5)nc4-c4ccc(F)cc4)OC3CCC2(C)C1CC=C1C(=O)OCC1O (stereo not shown) [1f] . Is its CC50 below 8 µM?
Reply text: y

====

- Test system: SK-MEL-28
- Stated conditions: read-out: 50% lethal concentration (LC50); SK-MEL-28, Melanoma
The reader will find reported CC50 values listed item by item below.
State the answer as a number, implicitly in µM.

{"Molecule": "C=C1CCC2C3(C)COC(c4cn(-c5ccccc5)nc4-c4cccc(Cl)c4)OC3CCC2(C)C1CC=C1C(=O)OCC1O (stereo not shown)", "Assay readout": "CC50", "Data value": 6.33}
{"Molecule": "C=C1CCC2C3(C)COC(c4cn(-c5ccccc5)nc4-c4cccc(F)c4)OC3CCC2(C)C1CC=C1C(=O)OCC1O (stereo not shown)", "Assay readout": "CC50", "Data value": 6.36}
{"Molecule": "C=C1CCC2C3(C)COC(c4cn(-c5ccccc5)nc4-c4ccc(Br)cc4)OC3CCC2(C)C1CC=C1C(=O)OCC1O (stereo not shown)", "Assay readout": "CC50", "Data value": 6.3}
{"Molecule": "C=C1CCC2C3(C)COC(c4cn(-c5ccccc5)nc4-c4ccc(C)cc4)OC3CCC2(C)C1CC=C1C(=O)OCC1O (stereo not shown)", "Assay readout": "CC50", "Data value": 6.39}
{"Molecule": "C=C1CCC2C3(C)COC(c4cn(-c5ccccc5)nc4-c4cccc([N+](=O)[O-])c4)OC3CCC2(C)C1CC=C1C(=O)OCC1O (stereo not shown)", "Assay readout": "CC50", "Data value": 8.11}

Inquiry: Identify measured CC50 associated with C=C1CCC2C3(C)COC(c4cn(-c5ccccc5)nc4-c4ccccc4)OC3CCC2(C)C1CC=C1C(=O)OCC1O (stereo not shown)
Reply text: 6.45

Inquiry: Identify measured CC50 associated with C=C1CCC2C3(C)COC(c4cn(-c5ccccc5)nc4-c4ccc(OC)cc4)OC3CCC2(C)C1CC=C1C(=O)OCC1O (stereo not shown)
Reply text: 7.01

====

The reader will find reported CC50 values listed item by item below.
- Test system: IGROV1
- Stated conditions: read-out: 50% lethal concentration (LC50); IGROV1, Ovarian

Consider the worked cases shown below.
{"Molecule": "C=C1CCC2C3(C)COC(c4cn(-c5ccccc5)nc4-c4cccc(F)c4)OC3CCC2(C)C1CC=C1C(=O)OCC1O (stereo not shown)", "Study target": "IGROV1", "CC50": "> 100 µM"}
{"Molecule": "C=C1CCC2C3(C)COC(c4cn(-c5ccccc5)nc4-c4ccc(F)cc4)OC3CCC2(C)C1CC=C1C(=O)OCC1O (stereo not shown)", "Study target": "IGROV1", "CC50": "> 100 µM"}
{"Molecule": "C=C1CCC2C3(C)COC(c4cn(-c5ccccc5)nc4-c4ccc(Br)cc4)OC3CCC2(C)C1CC=C1C(=O)OCC1O (stereo not shown)", "Study target": "IGROV1", "CC50": "> 100 µM"}
{"Molecule": "C=C1CCC2C3(C)COC(c4cn(-c5ccccc5)nc4-c4cccc(Br)c4)OC3CCC2(C)C1CC=C1C(=O)OCC1O (stereo not shown)", "Study target": "IGROV1", "CC50": "> 100 µM"}
{"Molecule": "C=C1CCC2C3(C)COC(c4cn(-c5ccccc5)nc4-c4ccc(C)cc4)OC3CCC2(C)C1CC=C1C(=O)OCC1O (stereo not shown)", "Study target": "IGROV1", "CC50": "> 100 µM"}

Inquiry: Identify measured CC50 associated with C=C1CCC2C3(C)COC(c4cn(-c5ccccc5)nc4-c4ccc(OC)cc4)OC3CCC2(C)C1CC=C1C(=O)OCC1O (stereo not shown)
Reply text: 6.52 µM

Inquiry: Identify measured CC50 associated with C=C1CCC2C3(C)COC(c4cn(-c5ccccc5)nc4-c4cccc(Cl)c4)OC3CCC2(C)C1CC=C1C(=O)OCC1O (stereo not shown)
Reply text: 7.5 µM
